# target.desc: NK2 receptor (Homo sapiens, UniProt P21452)
# Sequence (P21452 whole entry): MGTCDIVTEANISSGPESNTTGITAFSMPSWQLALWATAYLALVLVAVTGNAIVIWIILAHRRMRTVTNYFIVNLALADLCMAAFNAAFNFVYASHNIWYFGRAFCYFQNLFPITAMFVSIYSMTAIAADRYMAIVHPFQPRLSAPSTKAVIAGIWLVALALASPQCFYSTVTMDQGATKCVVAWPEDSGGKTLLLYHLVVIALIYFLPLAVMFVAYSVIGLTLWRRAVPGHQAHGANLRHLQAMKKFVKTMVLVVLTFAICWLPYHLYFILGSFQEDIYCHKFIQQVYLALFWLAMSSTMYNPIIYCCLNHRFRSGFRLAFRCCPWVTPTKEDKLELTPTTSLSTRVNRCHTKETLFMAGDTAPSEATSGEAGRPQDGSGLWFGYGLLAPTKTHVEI
# protocol.notes: neurokinin receptor binding assay, NK2 (Ki)
# protocol.conditions: read-out: Ki (NK2)
quantity.name: Ki (nM)
Output spec: scalar in nM, unitless text.

Q: I would be grateful if you could share the reported Ki for CNC(=O)CC1CCCN(C2CCN(CCC(C(CN(C)C(=O)c3cc(Cl)cc(Cl)c3)=NOCF)c3ccc(Cl)c(Cl)c3)CC2)C1=O (stereo not drawn) [Example 15K] .
Ans: 0.2

Q: // query Ki value for entry CON=C(CN(C)C(=O)c1cc(Cl)cc(Cl)c1)[C@H](CCN1CCC(N2CCC[C@H](CC(=O)N(C)C)C2=O)CC1)c1ccc(Cl)c(Cl)c1 [Example 13A]
Ans: 0.2

Q: Value lookup for Ki; key = CON=C(CN(C)C(=O)c1cc(Cl)cc(Cl)c1)C(CCN1CCC(N2CCCC(CC(=O)N3CCCC3)C2=O)CC1)c1ccc(Cl)c(Cl)c1 (stereo not drawn) [Example 12F]
Ans: 0.8

Q: # Ki lookup, item CCN(CC(=NOC)C(CCN1CCC(N2CCC[C@H](CC(N)=O)C2=O)CC1)c1ccc(Cl)c(Cl)c1)C(=O)c1cc(Cl)cc(Cl)c1 (stereo partly drawn) [Example 28C]
Ans: 0.6

Q: Need Ki, item CN(CC(=NOCF)C(CCN1CCC(N2CCCCC2=O)CC1)c1ccc(Cl)c(Cl)c1)C(=O)c1cc(Cl)cc(Cl)c1 (stereo not drawn) [Example 17S]
Ans: 0.8

Q: Ki lookup needed for CNC(=O)CC1CCCN(C2CCN(CCC(C(CN(C)C(=O)c3cc(Cl)cc(Cl)c3)=NOCC(N)=O)c3ccc(Cl)c(Cl)c3)CC2)C1=O (stereo not drawn) [Example 15D] , thanks.
Ans: 0.5

From: patent US6063926A
